- assay-summary: Plasma protein binding in human
- Assay type: ADME, cell-free
- applied-conditions: read-out: PPB (converted)
measured-parameter: fraction unbound

Reported fraction unbound of `CC(C)(C)CN1CCC2(CC1)CN(c1ccccc1NC(=O)Nc1nc3ccc(Cl)nc3s1)c1c(O)ccc(Cl)c12` : 0.007

---

- Tested on: Liver microsome
- assay-summary: Metabolic stability in rat liver microsomes assessed as compound remaining
- Assay type: ADME
# key: entry, value: Stability
API: value field is a number in %; no unit string.

| chemical-structure | measured-parameter | readout-units | recorded-number |
| --- | --- | --- | --- |
| CC(C)(C)CN1CCC2(CC1)CN(c1ccccc1NC(=O)Nc1ccc(C(F)(F)F)cc1)c1c(O)ccc(Cl)c12 | Stability | % | 93 |
| CC(C)(C)CN1CCC2(CC1)CN(c1ccccc1NC(=O)Nc1nc3ccc(F)cc3s1)c1c(O)ccc(Cl)c12 | Stability | % | 89 |
| COC(=O)c1ccc(O)c2c1C1(CCN(CC(C)(C)C)CC1)CN2c1ccccc1NC(=O)Nc1ccc(OC(F)(F)F)cc1 | Stability | % | 57 |

`CC(C)(C)CN1CCC2(CC1)CN(c1ccccc1NC(=O)Nc1ccc(OC(F)(F)F)cc1)c1c(O)ccc(F)c12` has a reported Stability of 70

Sample `CC(C)(C)CN1CCC2(CC1)CN(c1ccccc1NC(=O)Nc1csc(Cl)n1)c1c(O)ccc(Cl)c12` ; Stability observed: 66

Stability for `CC(C)(C)CN1CCC2(CC1)CN(c1ccccc1NC(=O)Nc1ccc(OC(F)(F)F)cc1)c1c(O)ccc(C#N)c12` is 51

Recorded result, `CC(C)(C)CN1CCC2(CC1)CN(c1ccccc1NC(=O)Nc1nc3ccc(Cl)cc3s1)c1c(O)ccc(Cl)c12` , Stability: 93

Summary for this compound, `CN(C)S(=O)(=O)c1ccc(O)c2c1C1(CCN(CC(C)(C)C)CC1)CN2c1ccccc1NC(=O)Nc1ccc(OC(F)(F)F)cc1` : Stability is 75

For this compound ( `CC(C)(C)CN1CCC2(CC1)CN(c1ccccc1NC(=O)Nc1ccc(OC(F)(F)F)cc1)c1c(O)ccc(Cl)c12` ), measured Stability is 88

Quick note, Stability for `CC(C)(C)CN1CCC2(CC1)CN(c1ccccc1NC(=O)Nc1ccc(OC(F)(F)F)cc1)c1c(O)ccc(C(F)(F)F)c12` landed at 98

Per the records, this compound ( `CC(C)(C)CN1CCC2(CC1)CN(c1ccccc1NC(=O)Nc1nc3ccc(Cl)nc3s1)c1c(O)ccc(Cl)c12` ) has Stability equal to 93

Measured Stability, `CC(C)(C)CN1CCC2(CC1)CN(c1ccccc1NC(=O)Nc1ccc(OC(F)(F)F)cc1)c1c(O)cccc12` : 87
